Taken from ChEMBL document CHEMBL1201862.

Below, each entry is listed with its recorded GI50.
System: SF-268
Test: NCI tumour cell line growth inhibition, 48 h
Activity calls are given as the source filed them. Cut-off read from the data, not from the text of the source: active = GI50 up to about 1.1 µM and inactive = higher.

Completed entries (count: 5):
COMPOUND: CCOC(=O)c1ncn2c1[nH]c(=O)c1ccccc12
GI50: > 100 µM (inactive)

COMPOUND: FC(F)(F)c1cccc(-c2nc3nc(Cl)c(Cl)nc3[nH]2)c1
GI50: 3.03 µM (inactive)

COMPOUND: O=C(CSc1nc2ccc(I)cc2c(=O)n1Cc1ccccc1)NN1C(=O)CCC1=O
GI50: 39.1 µM (inactive)

COMPOUND: O=C1C(CO)=C(CO)C(=O)c2c(O)ccc(O)c21
GI50: 0.649 µM (active)

COMPOUND: O=c1oc2cc(O)ccc2c(O)c1C(c1ccccc1F)c1c(O)c2ccc(O)cc2oc1=O
GI50: 78.2 µM (inactive)

// query GI50 lookup needed for CC1C(c2ccc3c(c2)OCO3)c2cc3c(cc2OC1N1CCCC1)OCO3 (centres undefined) , thanks.
// result 23.1 µM (inactive)

// query GI50 lookup needed for Nc1ccn(CCOC(c2ccccc2)P(=O)(O)O)c(=O)n1 (centres undefined) , thanks.
// result > 100 µM (inactive)

// query GI50 lookup needed for `NC(=O)C(=CNC(N)=S)C(N)=O` , thanks.
// result > 100 µM (inactive)

// query GI50 lookup needed for COCCO [2-METHOXYETHANOL] , thanks.
// result > 100 µM (inactive)

----------
Below, each entry is listed with its recorded GI50.
Test system: DMS-114
Test: NCI tumour cell line growth inhibition, 48 h
The source made the active and inactive calls. Cut-off read from the data, not from the text of the source: active = GI50 up to about 1.1 µM and inactive = higher.

MOLECULE: O=c1[nH]c2cccccc-2c1-c1nc2ccccc2[nH]1
MEASUREMENT_LABEL: GI50
OBSERVED_RESULT: 10.3 µM (inactive)

MOLECULE: CSCSCC(CO)NC(=O)/C=C/c1c(C)nc(O)nc1O (stereo not given)
MEASUREMENT_LABEL: GI50
OBSERVED_RESULT: 64.9 µM (inactive)

MOLECULE: Cc1ccc(C)c(N2C(=O)C(=O)C(c3nc4ccccc4o3)/C(=N/N)C2=O)c1 (stereo not given)
MEASUREMENT_LABEL: GI50
OBSERVED_RESULT: > 100 µM (inactive)

MOLECULE: CC(=O)OC1=CC(n2cc(F)c(=O)[nH]c2=O)OC(C)C1=O (stereo not given)
MEASUREMENT_LABEL: GI50
OBSERVED_RESULT: 99.3 µM (inactive)

Now take the following molecule into account.
// query GI50 lookup needed for `Cc1cccc2c(O)cc(=O)oc12` , thanks.
// result > 100 µM (inactive)

----------
System: SF-268
Test: NCI tumour cell line growth inhibition, 48 h
Active and inactive are the calls of the source. Rule as the data show it: active = GI50 up to about 1.1 µM and inactive = higher.
Below, each entry is listed with its recorded GI50.

Completed entries (count: 3):
COMPOUND: O=c1c2ccc(Cl)cc2oc2c(CSc3ccccc3)cccc12
MEASUREMENT_LABEL: GI50
OBSERVED_RESULT: > 100 µM (inactive)

COMPOUND: CS[C@]12[C@@H]3C(=O)N(C)C(=O)[C@@H]3[C@](C)(C(=O)N1C)C(=O)N2c1ccccc1
MEASUREMENT_LABEL: GI50
OBSERVED_RESULT: > 100 µM (inactive)

COMPOUND: Oc1c2cccc1Cc1cccc3c1OCCOCCOCCOCCOc1c(cccc1Cc1cccc(c1O)C3)C2
MEASUREMENT_LABEL: GI50
OBSERVED_RESULT: > 100 µM (inactive)

// query GI50 lookup needed for CCCCCCCN1C(=O)C(O)(c2ccc(C3(O)C(=O)N(CCCCCCC)c4ccccc43)s2)c2ccccc21 (centres undefined) , thanks.
// result 2.11 µM (inactive)

----------
Tested on: SF-295
Assay: NCI tumour cell line growth inhibition, 48 h
Calls of active or inactive are those of the source. Cut-off read from the data, not from the text of the source: active = GI50 up to about 1.1 µM and inactive = higher.
Reply using exactly one outcome from true (1) for active, false (0) for inactive

For orientation, consider the following solved cases.
MOLECULE: ClCCCSSCCCCl
LABEL: false (0)
--
MOLECULE: COC(=O)CSc1cc(Cl)c(C)cc1S(=O)(=O)Nc1n[nH]c(N)n1
LABEL: false (0)
--
MOLECULE: Cc1nc(SCC(N)=O)c2sc(=S)n(-c3ccccc3)c2n1
LABEL: false (0)
--
MOLECULE: COc1ccccc1C(N)c1ccccc1 (centres undefined)
LABEL: false (0)
--
MOLECULE: CN(C)c1ccc(/C=C(\C#N)c2nc(-c3cc4ccccc4oc3=O)cs2)cc1
LABEL: false (0)
--
MOLECULE: O=C1C2=C(C(=O)c3c(O)ccc(O)c31)[C@@H](O)[C@@H](O)[C@@H](O)C2
LABEL: false (0)
--
MOLECULE: O=[N+]([O-])c1ccc(C2=NOC(c3ccc(Cl)cc3)N2C23CC4CC(CC(C4)C2)C3)cc1 (centres undefined)
LABEL: false (0)
--
MOLECULE: COc1ccc(/C=C2\N=C3NC(=O)C(N4CCCCC4)=C(N)N3C2=O)cc1
LABEL: false (0)

// query # fetch the recorded call for O=c1ncccn1[C@@H]1O[C@H](CO)[C@H](O)C1O (some centres undefined) here
// result false (0)

// query # fetch the recorded call for `CO[C@H]1C=C[C@@]23c4cc5c(cc4CO[C@]2(O)CN(C)[C@H]3C1)OCO5` here
// result false (0)

// query # fetch the recorded call for OC(c1ccccn1)C1CNc2ccccc21 (centres undefined) here
// result false (0)

// query # fetch the recorded call for `CC(C)(C)c1ccc(OC(=O)Nc2ccc(O)c(C(=O)O)c2)cc1` here
// result false (0)

// query # fetch the recorded call for COc1cc2c3cc1Oc1c(OC)c(OC)cc4c1C(Cc1ccc(O)c(c1)Oc1ccc(cc1)CC3N(C)CC2)CN(C)C4 (centres undefined) here
// result false (0)

// query # fetch the recorded call for `CC(=O)N/C(=C\c1ccc(Cc2nc3c([nH]2)C(=O)c2ccccc2C3=O)cc1)c1nc2c([nH]1)C(=O)c1ccccc1C2=O` here
// result false (0)

// query # fetch the recorded call for N#CCC(=O)NC1C2CC3CC(C2)CC1C3 (centres undefined) here
// result false (0)

----------
Test system: RXF 393
Test: NCI tumour cell line growth inhibition, 48 h
Active and inactive are the calls of the source. Cut-off read from the data, not from the text of the source: active = GI50 up to about 1.1 µM and inactive = higher.
Reply using exactly one outcome from active, inactive

// query # fetch the recorded call for CN1C(c2ccccc2)CS(=O)(=O)CS1(=O)=O (stereo not drawn) here
// result inactive

----------
Test system: NCI-H23
Experiment: NCI tumour cell line growth inhibition, 48 h
The source made the active and inactive calls. No stated cut-off is given here; in the data, active = GI50 up to about 1.1 µM and inactive = higher.
MEASUREMENT_LABEL: GI50

MOLECULE: CC(SC(=S)N1CCOCC1)C(=O)Nc1nnc(-c2ccc(Cl)cc2)o1 (centres undefined)
EXPERIMENTAL_SYSTEM: NCI-H23
GI50: 50.2 µM (inactive)

MOLECULE: O=C(O)C12C=CC(C1)c1ccccc12 (centres undefined)
EXPERIMENTAL_SYSTEM: NCI-H23
GI50: > 100 µM (inactive)

MOLECULE: Cc1cc2c(ccc[n+]2[O-])[n+]([O-])c1
EXPERIMENTAL_SYSTEM: NCI-H23
GI50: > 100 µM (inactive)

// query GI50 lookup needed for `NC(=O)C(=CNC(N)=S)C(N)=O` , thanks.
// result > 100 µM (inactive)

// query GI50 lookup needed for `O=C(NC12CC3CC(CC(C3)C1)C2)C(=O)c1c[nH]c2ccc(Cl)cc12` , thanks.
// result > 100 µM (inactive)

// query GI50 lookup needed for `COC(=O)c1c(C)cc(OC)c(C/C=C(\C)CCCc2coc(C=C(C)C)c2)c1OC` , thanks.
// result > 100 µM (inactive)

// query GI50 lookup needed for `CCOC(CCNCC(OCC)OCC)OCC` , thanks.
// result > 10 µM (inactive)

// query GI50 lookup needed for `Cc1n[nH]c(=O)n1/N=C/c1ccc(F)cc1` , thanks.
// result > 100 µM (inactive)

// query GI50 lookup needed for `OCCCCn1cc(Cn2ncc3c(O)ncnc32)nn1` , thanks.
// result > 100 µM (inactive)

// query GI50 lookup needed for CCOC(=O)CCC(NC(=O)c1ccc(CNc2nc3cc(N)cc(N)c3nc2-c2ccccc2)cc1)C(=O)OCC (centres undefined) , thanks.
// result > 67.6 µM (inactive)

// query GI50 lookup needed for COc1ccccc1C(N)c1ccccc1 (centres undefined) , thanks.
// result > 100 µM (inactive)

// query GI50 lookup needed for CCOC(=O)C(C(=S)SC)c1nn2c(=O)cc(C)nc2s1 (centres undefined) , thanks.
// result 20.6 µM (inactive)

// query GI50 lookup needed for COC(=O)C1Cc2ccc3c(c2C1=O)CCCC3 (centres undefined) , thanks.
// result 74.5 µM (inactive)

// query GI50 lookup needed for `COc1ccc(Oc2nc3ccc(C(F)(F)F)cc3nc2-c2ccccc2)cc1` , thanks.
// result 1.13 µM (inactive)

// query GI50 lookup needed for `Nc1n[nH]c(N)n1` , thanks.
// result 5300 µM (inactive)

// query GI50 lookup needed for `COc1cccc(Nc2n[nH]c(NS(=O)(=O)c3cc(C)c(Cl)cc3S)n2)c1` , thanks.
// result > 100 µM (inactive)

// query GI50 lookup needed for `CC(CCC(=O)O)(c1ccc(O)cc1)c1ccc(O)cc1` , thanks.
// result > 100 µM (inactive)

// query GI50 lookup needed for COC1CC(NC(=O)C(F)(F)F)C(OC(C)=O)C(C)O1 (centres undefined) , thanks.
// result > 100 µM (inactive)

// query GI50 lookup needed for `Cc1nn(-c2ccccc2)c2nc3ccc(Cl)cc3c(-c3ccccc3)c12` , thanks.
// result > 100 µM (inactive)
